Molecular target: T1, BmSTPR with R1 deleted (R2-R4) (Bombyx mori, UniProt Q5FBS0 122-193)
T1 sequence: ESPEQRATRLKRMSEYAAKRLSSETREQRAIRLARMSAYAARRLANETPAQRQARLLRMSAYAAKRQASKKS
Test: ITC
QUANTITY KIND: Kd (µM)
Give your result in µM as a bare value.

Problem: Query: Kd; subject: 20-bp (+290) (dsDNA) DNA 1: AGTATTTACATAGATTCATC DNA 2: GATGAATCTATGTAAATACT
Result: 0.547
